The reported numbers originate from patent US20240116985A1.

Molecular target: T1, full-length beta-Catenin (Uniprot ID P35222) (Homo sapiens (Human), UniProt P35222 1-781)
T1 construct: also called bCat; B-Catenin
T1 sequence: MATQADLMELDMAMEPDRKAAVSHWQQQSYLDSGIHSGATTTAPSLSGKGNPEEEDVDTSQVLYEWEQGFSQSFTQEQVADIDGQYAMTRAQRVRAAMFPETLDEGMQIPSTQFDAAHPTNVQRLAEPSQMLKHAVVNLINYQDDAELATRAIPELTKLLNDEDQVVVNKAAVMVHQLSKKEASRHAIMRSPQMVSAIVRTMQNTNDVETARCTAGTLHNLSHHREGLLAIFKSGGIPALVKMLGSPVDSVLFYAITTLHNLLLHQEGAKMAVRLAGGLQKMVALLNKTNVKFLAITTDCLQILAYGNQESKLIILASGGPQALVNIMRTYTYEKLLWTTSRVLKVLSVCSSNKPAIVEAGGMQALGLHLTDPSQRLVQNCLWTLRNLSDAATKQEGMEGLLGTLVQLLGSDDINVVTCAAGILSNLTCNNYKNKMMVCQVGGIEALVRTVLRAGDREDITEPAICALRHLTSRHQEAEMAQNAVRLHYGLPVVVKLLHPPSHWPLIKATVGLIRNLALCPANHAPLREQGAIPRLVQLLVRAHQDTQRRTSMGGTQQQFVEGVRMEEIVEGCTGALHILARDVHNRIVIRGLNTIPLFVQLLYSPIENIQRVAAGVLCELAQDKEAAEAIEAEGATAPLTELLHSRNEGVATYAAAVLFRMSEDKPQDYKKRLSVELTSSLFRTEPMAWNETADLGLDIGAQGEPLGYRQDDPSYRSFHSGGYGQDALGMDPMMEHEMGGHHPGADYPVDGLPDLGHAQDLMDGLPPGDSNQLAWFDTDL
Assay: fluorescence polarization competition; full-length beta-catenin with 5FAM-labeled TCF4 residues 10-53 probe as competitor
pEC50: −log10 of the molar value. Starred links: 1 amine or outer side, 2 acyl side, 3 side chain; linkers in the order of their positions; H or OH if unused. Positions of bridges follow the written chain, without caps; N, C: chain ends. Non-standard residues stand in square brackets, D forms with d. B5 = 2-amino-2-(pent-4-en-1-yl)hept-6-enoic acid, C=CCCCC(CCCC=C)(N[*:1])C(=O)[*:2]; Phe(3-OMe) = COc1cccc(C[C@H](N)C(=O)O)c1; Bta = N[C@@H](Cc1csc2ccccc12)C(=O)O; αAllylPro = C=CC[C@@]1(C(=O)O)CCCN1; S8 = C=CCCCCCC[C@](C)(N)C(=O)O

{"columns": ["Binder", "pEC50"],
 "data": [
  ["Ac-[αAllylPro]DI[B5]DEAA[Phe(3-OMe)]Q[S8]F[Bta]Q-NH2 (staple 1-4, 4-11, Stapled peptide composition) [I-724]", 6.94]
]}
